assay: amyloid nucleation score (Sup35N fusion, yeast selection) (log enrichment); library NNK2; higher = more nucleation; inactive = no reads after selection;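 also: zero at mode of non-aggregating sequences after 7 days selection at 30°C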
Rule: Satisfied for amyloid nucleation score not less than 0.4, Not satisfied for anything less.

[[record]]
substance = "SYTMVTLPSPSL"
class_label = "Not satisfied"

[[record]]
substance = "RFTLIFCGSRESNGG"
class_label = "Satisfied"

[[record]]
substance = "FNMTIVDISLYRFMNVLKRP"
class_label = "Not satisfied"

[[record]]
substance = "GQSCHYCRMTLNIDFTDWVL"
class_label = "Not satisfied"

[[record]]
substance = "YFDSDRS"
class_label = "Not satisfied"

[[record]]
substance = "SRFLCVKTTVVALI"
class_label = "Satisfied"


# bool: amyloid nucleation score of `CTMWVDVCLSCDHMRYDNGG` >= 0.4
Satisfied

# bool: amyloid nucleation score of `GCQGVEGSESEQIDQIENWA` >= 0.4
Satisfied

# bool: amyloid nucleation score of `LSLYWVMSLKSQAP` >= 0.4
Not satisfied

# bool: amyloid nucleation score of `GGLELLLGKMNVNVAMLKSF` >= 0.4
Satisfied

# bool: amyloid nucleation score of `MCELGFHNSPFSGTFLLLMF` >= 0.4
Satisfied

# bool: amyloid nucleation score of `RRGSELINYRR` >= 0.4
Not satisfied

# bool: amyloid nucleation score of `LAFPCFRVSGYESYGFVRKL` >= 0.4
Satisfied

# bool: amyloid nucleation score of `HSLKNYSGYLLLRTNRCI` >= 0.4
Not satisfied

---

experiment: amyloid nucleation score (Sup35N fusion, yeast selection) (log enrichment); library NNK2; higher = more nucleation; inactive = no reads after selection
quantity_measured: amyloid nucleation score

Some sequences with recorded amyloid nucleation score:
[[record]]
sequence_input = "RDNCVWYTGHSLKRMRIAKA"
obs_value = "inactive"

[[record]]
sequence_input = "TGHWMGPSDYRQRVCH"
obs_value = "inactive"

[[record]]
sequence_input = "FNSLGFRLTSCIDRVTLVLW"
obs_value = "inactive"

[[record]]
sequence_input = "GDGRVYMVIGSGRGRV"
obs_value = 0.506


Now take the following sequence into account.
Give me measured amyloid nucleation score, please, for this sequence: `ALMTVASRKTLIPVGAKQMN`
inactive

---

test: amyloid nucleation score (Sup35N fusion, yeast selection) (log enrichment); library NNK1; higher = more nucleation; inactive = no reads after selection
quantity_measured: amyloid nucleation score

Some substances with recorded amyloid nucleation score:
[[record]]
substance = "ESAHNWWNPVSSYL"
obs_value = 1.06

[[record]]
substance = "RWGLRQIMVVENFIHRWVCP"
obs_value = 1.04

[[record]]
substance = "KCIYVFSYIYTFLNMCWRGH"
obs_value = 3.5

[[record]]
substance = "PFQYADGTFF"
obs_value = 4

[[record]]
substance = "GIHNFEGGMTLWLLLFSQRS"
obs_value = 0.24

[[record]]
substance = "GMHLVKQVQGYRVRAEYSLF"
obs_value = 0.98

[[record]]
substance = "PSILTVCLRV"
obs_value = 0.188

[[record]]
substance = "NLDKNGYRTCNLKISYHMSR"
obs_value = 1.28


Could I get amyloid nucleation score for every one of these entries?
1. WVSSAAGAAGPVIYWDVALY
2. GIGAVSAC
3. LSFLLEASNHDWDGSLG

1. -0.612
2. 0.317
3. inactive

Could I get amyloid nucleation score for every one of these entries?
1. MLRTMG
2. IIIRRISGGFAVPSYAHLHS
3. KGYSSTYGRPSKHYCC
4. FAQECLFMSVDLCLR
5. VEGALGYGCASC

[0.746, 0.53, "inactive", 0.125, 0.768]

Could I get amyloid nucleation score for every one of these entries?
1. AMFAMLNDRGRLGACYLVGK
2. YNCYNF
3. LVRRFLSWRIQSLDPIKK
4. VATPSSCVDSQAKTRMTGTL
5. VECLKV

[1.55, 0.97, -0.425, -0.112, 0.387]

Could I get amyloid nucleation score for every one of these entries?
1. KISYADF
2. RTILISAGAKCVNLMMLDSV
3. SVLIRALFTFKLRSVERQDY
4. AYINSSDSRSDMSRNWY
5. DYIIPMLSI
6. LFRWVLLFFVRT
7. DTCYHINIGKTQSADQRDCT
8. RPFRLYECCCDGELFLN

[0.646, 1.6, 3.82, 0.47, 0.515, "inactive", 0.219, -0.997]
